Assay: protein stability index of a GFP-peptide fusion (GPS, HEK-293T) (PSI 1-6); higher = more stable;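 further: 24-mer peptide tiles fused after GFP, lentivirally expressed, FACS-sorted into six equal bins by GFP/DsRed ratio, decoded by Illumina sequencing, PSI is the read-weighted mean bin number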
Settings: treatment: DMSO; c terminus: a fixed tail appended
Category | rule: reported protein stability index within range, see c1: < 3; c2: ≥ 3 and < 4; c3: ≥ 4

residue sequence | group label
KHLTARVLCLIVLPLALYTATFAV [POMT2] | c2
ADADCFVCVFLSHGEGNHIYAYDA [CASP6] | c1
KAILEQNFRDLVRDLEKQKEEVRA [TRIM29] | c3
DQDLDALMADLVADISEAEQRTIQ [APBB1IP] | c3

Exercise: read the entry LYPALKGVNTVFHCASPPPSSNNK [NSDHL] and state which class it falls under.
c2

Class (by measured protein stability index) for DTTTPTTSAITASRSESPPPLSDP [BRD3]
c3

Band for the recorded protein stability index of PPPPPKEGHQEGLVELPASFRELL [SCNN1D] ?
c3

Note: place this sequence into its band. Item: SDINSLRRILDELTLCRSDLEAQM [KRT33B]
c1

Band for the recorded protein stability index of SMCEHHLVPFVGKVHIGYLPNKQV [GCH1] ?
c1

GET /class?item= KVGKLAATAVGGGFFLLQLANHTG [FUNDC2]
c1

---

Test: protein stability index of a GFP-peptide fusion (GPS, HEK-293T) (PSI 1-6); higher = more stable
Conditions: treatment: MLN4924 1 uM, 8 h; c terminus: a fixed tail appended
metric: protein stability index
Enter the number alone.

Observe how each entry below is paired with its result.
residue sequence | metric | measurement
DHKRETERVVREALEKLRSEMEEE [ZMYND11] | protein stability index | 5.35
LVQLDDYRFASAGDDGIVVVWNAQ [WDR41] | protein stability index | 2.87
DAFWWAVVTMTTVGYGDMHPVTIG [KCNA3] | protein stability index | 3.17

Fill in: protein stability index of CSCEWMAAMFGGSFVESANSEVYL [RHOBTB1] is ___
2.85

Recorded protein stability index of QPYTCSICRRNFSRRSSLLRHQKL [ZNF75A] , please.
3.71

Item under review: SKPGVYTSYKPYLNRDEEIIKQLQ [DENND6A] . Reported protein stability index?
3.35

protein stability index lookup needed for IQGQNKEMLAAACQMFLGKTEAEI [FLOT1] , thanks.
3.42

// returns reported protein stability index for input MYDNELWAPASEGLKPGPEDGPGK [SERTAD1]
5.25

---

Test: protein stability index of a GFP-peptide fusion (GPS, HEK-293T) (PSI 1-6); higher = more stable
Details: treatment: MLN4924 1 uM, 8 h; c terminus: a fixed tail appended
metric: protein stability index
Respond numerically, and do not add a unit to the figure.

residue sequence | protein stability index
LNGENSDIKICALGEEWSLHKIYL [GMCL1] | 1.94
DRGLRGFPKNRVLEGVIDRYQQSK [TRIM9] | 4.01

Please find the next sequence below.
# query: protein stability index of entry FESLPENASHKLEVRLVPVSFEDP [ATE1]
3.68

---

Test: protein stability index of a GFP-peptide fusion (GPS, HEK-293T) (PSI 1-6); higher = more stable
Details: treatment: MLN4924 1 uM, 8 h; c terminus: a fixed tail appended
# protein stability index per entry
No unit in the answer, only the number.

Would you please look over these solved cases?
residue sequence | metric | measurement
KVVKGHRPELPPVCRARPRACSHL [RIPK4] | protein stability index | 3.04
LLGFNLTFVFLASLLVLIEPVAAG [CLCN6] | protein stability index | 3.14
EHLPVKPDTMEKLRTHIDAIILAL [DENND6A] | protein stability index | 2.63

Quick one: protein stability index of HGEEEVETFAFQAEIAQLMSLIIN [HSP90AB1] ?
2.95

Need protein stability index of SEEKGHPQEESEESNVSMASLGEK [CHGB] , thanks.
5.61

# lookup: protein stability index of PRGYFHTFAGDTCQVALNFANEEE [WASL]
4.34

So what's the measured protein stability index for this one? IRVRGQRASRLQAPVLVAAPHSTF [LPCAT4]
2.73

Please look up its protein stability index: PAADGARAPRSPGQVTPRGLRLRL [C6orf223]
3.97

Please look up its protein stability index: VAVDFTWEEWQFLSPAQKDLYRDV [ZNF649]
2.64

Data request, read-out protein stability index, for RTPRLMPDKESMYYPRVQHYRELL [GDAP1]
2.61

---

Assay: protein stability index of a GFP-peptide fusion (GPS, HEK-293T) (PSI 1-6); higher = more stable
Conditions: treatment: MLN4924 1 uM, 8 h; c terminus: a fixed tail appended
Binned protein stability index; ranges: low class (below 3), middle class (3 to below 4), high class (4 or more)

residue sequence | group label
TNSDVLAQQFALMAPLLFNGCRSG [DCAF4] | low class
LEDTCKTIEECCRKQKQELCEKFD [TRIM55] | high class
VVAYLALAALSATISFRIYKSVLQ [RTN1] | low class
PGAYYPYERTLGQYQYERYGAVEL [IRX6] | low class

Which protein stability index band matches SQNIAAETRAEDPPWFEGLESRFQ [DFFB] ?
high class

Just checking, what class would you give WCRDRLLGHREPSAHPVEVFSFDL [TMEM175] here?
low class

State the class of the sequence shown: DLLCAQLQLPQLSDLGLLRLCTWL [FANCE]
low class

The entry to classify is PDGKEMAEEYDEKTSELLVRKWRV [DPCD] ; which class holds it?
high class

---

Assay: protein stability index of a GFP-peptide fusion (GPS, HEK-293T) (PSI 1-6); higher = more stable
Conditions: treatment: MLN4924 1 uM, 8 h; c terminus: a fixed tail appended
metric: protein stability index
Just the number, please.

Sample answers from the record:
residue sequence | measurement
ALQEYSSISEKLSSTNFAMKRDVQ [C8orf76] | 3.48
FEAPPLQGQAAAPASGSGADSEPA [TRIM55] | 5.53
LGLVARQEDSGLRDHSVRVLISNH [AUP1] | 3.01

What value of protein stability index has been reported for the following sequence? LQAPVPPDSVPSLQNMGLLLDKLA [PBXIP1]
2.86

Fill in the blank: the reported protein stability index of ADLSSGSSGEDDDFKSCPQGPQGR [PWWP2B] is ____.
5.52

Given the sequence QYRPSDLLCPETYVWVPIEQCLPS [ATE1] , what is its reported protein stability index?
2.47

Consider the sequence shown here: DGDAPGSLLPAQVAACAQTVVSLA [CEBPD] What is its recorded protein stability index?
4.12

Which protein stability index is listed for QAELSYKKVSEGPPLRLWRSVIEV [DLC1] ?
2.49

protein stability index for LCHCGKAFSHKSMRDRHVNMHLNL [ZBTB22] ?
2.32

Returns the measured protein stability index for the input sequence. Input: LENRIQREIALAKKHGTQNKRAAL [CHMP4C]
4.04

If you can, please state the reported protein stability index value of FKTYISPWERAMGVDPQQKMELGI [MYOZ1] .
2.31

---

Assay: protein stability index of a GFP-peptide fusion (GPS, HEK-293T) (PSI 1-6); higher = more stable
Details: treatment: MLN4924 1 uM, 8 h; c terminus: a fixed tail appended
metric: protein stability index

// known answers, use as guide
residue sequence | measurement
FRSRSRLTHLSLSRRASESSLSSE [CDC25B] | 3.99
GEKPFKCHLCNYACRRRDALTGHL [IKZF1] | 2.51
IIANTMAFQNDVYEWARDHRAHHK [SCD] | 2.86
SASHRPCVNGDVDKPSEPASEEGS [SMG5] | 5.64
VCISTKTQCSEEDQCKINKQIYNL [FEM1B] | 3.33
RIRIDDEPANLDILDTAGQAEFTA [RIT1] | 4.77

Here is the next item to consider.
Which protein stability index is reported for this sequence? YPHFSHRPSTLQAASTPQAEEDWT [OAS1]
4.76

---

Assay: protein stability index of a GFP-peptide fusion (GPS, HEK-293T) (PSI 1-6); higher = more stable
Conditions: treatment: DMSO; c terminus: a fixed tail appended
Rule: protein stability index under 3 gives class 0, otherwise class 1.

residue sequence | group label
PGPPGSSRPVKGQVVTVHLQTSLE [FKBP8] | class 1
WVYSGRRGVHCWVCDESVRKLSSA [PRIM1] | class 0
WTNGSGLALCQRYYHRGHVDPAND [MCOLN1] | class 1
TQKLEEIKENAQDTMRQINKKGFW [TOR1AIP2] | class 1

Reported protein stability index at or above 3? SSSTLMSSELETTSFFDSDEDDST [DVL3]
class 1

Has VYLHGDDHQDSDEFCRNTLCAPEV [FAF2] a recorded protein stability index greater than or equal to 3?
class 1

Does the sequence QNQSDSLLALAGAVQRLEGALWGL [SCARA5] have recorded protein stability index that is 3 or more?
class 0

# check: protein stability index of DLLCAQLQLPQLSDLGLLRLCTWL [FANCE] is greater than or equal to 3
class 0

Could you please find out whether DGKRCRRKDVCKSTHHGCEHICVN [MATN2] has protein stability index that meets 3 or exceeds it?
class 1

Confirm if protein stability index reported for the sequence RRNEETPEEGQQPWLCGESFTLAD [GDAP1] is 3 or above.
class 1

Dear colleague, could you confirm whether RIPYTKSQTEAHYSCQSKEILRYM [P2RY14] has protein stability index at or above 3?
class 0

Decide: protein stability index of NDSGICMSPESYLGSPQHSPSTRG [ATF4] >= 3?
class 1

Record TPHMLLDLSDLLQVDSLRPASFPT [BRF1] ; criterion: protein stability index no lower than 3. Met?
class 0
